Dear all, this message contains AC50 results, target or system Cytochrome P450 3A4 (Homo sapiens).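 Note: CYP3A4 tested as one member of a cytochrome P450 panel screen.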

molecule	target_of_assay	AC50
CN1CCCC2(CCN(C(=O)c3cnccn3)CC2)C1	Cytochrome P450 3A4 (Homo sapiens)	25.1 µM (inconclusive)
CCOC(=O)N1CCN(C(=O)CSCc2nc(-c3ccccc3F)oc2C)CC1	Cytochrome P450 3A4 (Homo sapiens)	25.1 µM (inconclusive)
CS(=O)(=O)N1CCCC(C(=O)N2CCc3ccccc3C2)C1 (stereo not drawn)	Cytochrome P450 3A4 (Homo sapiens)	17.8 µM (inconclusive)

* * *

Assay read-out IC50; system under study: Estrogen receptor beta (Homo sapiens, UniProt Q92731).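 Note: recombinant ER-beta bound to coactivator SRC1 peptide in presence of estradiol agonist; inhibitors block coactivator peptide binding and lower the FRET signal.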
Sequence (Q92731 whole entry): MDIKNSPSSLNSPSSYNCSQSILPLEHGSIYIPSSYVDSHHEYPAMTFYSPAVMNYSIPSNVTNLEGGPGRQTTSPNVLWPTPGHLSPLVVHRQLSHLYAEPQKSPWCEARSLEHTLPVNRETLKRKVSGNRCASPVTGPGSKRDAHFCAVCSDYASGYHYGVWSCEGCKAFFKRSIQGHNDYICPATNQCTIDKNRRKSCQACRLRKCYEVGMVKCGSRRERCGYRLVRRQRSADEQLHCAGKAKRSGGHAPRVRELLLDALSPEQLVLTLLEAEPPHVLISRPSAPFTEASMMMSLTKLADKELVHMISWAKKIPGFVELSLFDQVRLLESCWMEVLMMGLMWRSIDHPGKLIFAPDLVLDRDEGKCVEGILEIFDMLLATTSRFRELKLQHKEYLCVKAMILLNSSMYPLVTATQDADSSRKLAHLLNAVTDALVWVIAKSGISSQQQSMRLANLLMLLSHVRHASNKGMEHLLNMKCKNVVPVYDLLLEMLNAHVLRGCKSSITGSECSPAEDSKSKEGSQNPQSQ
Active and inactive are the calls of the source.

compound	IC50
Cc1cc(Cl)ccc1OCC(=O)OC(C)C(=O)N(C)C (stereo not given)	16.7 µM (active)
CCn1c(NN)nc2sc3c(c2c1=O)CCC3	> 50 µM (not active)
COc1ccc(-c2nnc(SC/C(O)=C(/C#N)C(C)=N)o2)cc1	11.2 µM (active)
COc1ccc(Nc2nnc(SCc3cc(=O)n4ccsc4n3)s2)cc1	> 50 µM (not active)
CCOc1ccc(C(=O)OCC(=O)NCc2ccco2)cc1OCC	> 50 µM (not active)

* * *

biological target: Replicative DNA helicase DnaB (Mycobacterium tuberculosis); assay: DnaB intein splicing inhibitors, dose response, biochemical, cell-free fluorescence (AID 449749); assay type: functional
Active and inactive are the calls of the source.

molecule	AC50
Cc1nc([N+](=O)[O-])c(Sc2nc3ccccc3[nH]2)n1Cc1ccccc1	15.3 µM (active)
Cc1cccc(CS(=O)(=O)c2ncc(Cl)c(C(=O)Nc3nnc(C(C)C)s3)n2)c1	1.2 µM (active)
COc1ccc(N(C(=O)COc2cccc(C)c2)S(=O)(=O)c2ccc(C)cc2)cc1	4.29 µM (active)
COC(=O)c1ccc(/N=C2\C(Cl)=C(O)OC2OC(=O)c2ccccc2)cc1 (stereo not given)	10.9 µM (active)
COCc1n[nH]c2c1C(c1ccsc1)C(C#N)=C(N)O2 (stereo not given)	21.1 µM (active)
COc1ccccc1NC1=C(N2CCCCC2)C(=O)c2ccccc2C1=O	18.6 µM (active)
CCOC(=O)c1c(NC(C)=O)sc2c1CCC(/C=N/CCCN(CC)CC)=C2Sc1ccccc1	0.239 µM (active)
COc1ccc(Nc2ccc3c(c2)=NC2(CCCCC2)[N+]=3[O-])cc1	9.3 µM (active)
Cc1nn(-c2ccccc2)c(O)c1/C=N/N1CCOCC1	39.3 µM (active)
O=C(Nc1ccc(N2CCOCC2)cc1)Nc1ccc2nsnc2c1	170 µM (active)

* * *

target: UniProt:P34949; test: phosphomannose isomerase inhibition – biochemical, fluorescence intensity, confirmation (AID 1535)
Sequence (P34949 whole entry): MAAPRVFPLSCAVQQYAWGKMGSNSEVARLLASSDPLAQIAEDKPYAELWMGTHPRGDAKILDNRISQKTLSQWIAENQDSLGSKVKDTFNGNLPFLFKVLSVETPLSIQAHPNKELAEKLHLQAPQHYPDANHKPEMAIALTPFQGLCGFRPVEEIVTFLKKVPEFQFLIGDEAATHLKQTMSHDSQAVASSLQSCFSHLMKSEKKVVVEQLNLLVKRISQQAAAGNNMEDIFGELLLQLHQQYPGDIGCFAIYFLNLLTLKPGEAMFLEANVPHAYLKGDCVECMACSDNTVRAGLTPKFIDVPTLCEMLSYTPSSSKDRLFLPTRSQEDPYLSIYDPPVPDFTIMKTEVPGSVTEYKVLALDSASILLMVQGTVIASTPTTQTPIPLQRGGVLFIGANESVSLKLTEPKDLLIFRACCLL
Activity calls are given as the source filed them.
Outcome codes: active, inactive

molecule	discrete_label
CS(=O)(=O)c1ccc2nc(-n3sc4ccccc4c3=O)sc2c1	inactive
Cc1cc2n(n1)SC(Nc1ccc(F)cc1)N2 (centres undefined)	inactive
Cc1cnc(/N=c2\ssnc2Cl)cn1	inactive
Cc1ccc(C)c(-n2sc3cc(F)ccc3c2=O)c1	active

* * *

test: NIH3T3 cell viability loss – ATP luminescence, mouse fibroblasts, counter-screen, dose response (AID 2010); format: functional, cell-based;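 note: cells exposed to compound for about 90 hours before reading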
Calls of active or inactive are those of the source.
outcome_measure: EC50

compound	outcome_measure	measured_value
CCOc1cccc(/C=C/c2ccc3cccc(O)c3n2)c1OC	EC50	4.48 µM (active)
CC(CN1CCN(C)CC1)OC(=O)c1ccc(Cl)cc1 (stereo unspecified)	EC50	> 60 µM (not active)
Cc1ccc(S(=O)(=O)c2ccccc2)cc1S	EC50	> 30 µM (not active)
COCCn1c(SCC(=O)NC(=O)NCc2ccccc2)nc2ccccc21	EC50	> 60 µM (not active)
O=C(N/N=C\c1ccc([N+](=O)[O-])o1)C1COc2ccccc2O1 (stereo unspecified)	EC50	> 60 µM (inconclusive)
COc1ccc(Nc2ccc3c(c2)=NC2(CCCCC2)[N+]=3[O-])cc1	EC50	9.19 µM (active)
